The measured values listed here are drawn from paper PMC3310199.

Molecular target: streptococcal cysteine protease SpeB (Streptococcus pyogenes serotype M1, UniProt P0C0J1)
Assay: SpeB activity assay
Type: biochemical, S. pyogenes
Details: SpeB 0.28 μM, 4.8 × 10^3 molar excess of peptide/analogue
attribute-measured: inhibitory effect on SpeB activity (Figure 5A)

CC(C)C[C@H](N)C(=O)N1CCC[C@@H](NCC(N)=O)C1 [(R)-LpipG] : do not inhibit SpeB
CC(C)C[C@H](N)C(=O)NCC(=O)N1CCC[C@@H](N2CCC[C@H]2C(N)=O)C1 [(R)-LGpipP] : inhibited SpeB activity
NC(=O)[C@@H]1CCCN1C(=O)CN[C@@H]1CCCNC1 [(R)-pipGP] : no inhibitory activity
CC(C)C[C@H](N)C(=O)N1CCC[C@H](NCC(=O)N2CCC[C@H]2C(N)=O)C1 [(S)-LpipGP] : no inhibitory activity
NC(=O)CN[C@H]1CCCNC1 [(S)-pipG, (+)-2-((S)-Piperidin-3-ylamino)acetamide] : do not inhibit SpeB

Field: next compound
Quick check: inhibitory effect on SpeB activity (Figure 5A) of CC(C)C[C@H](N)C(=O)NCC(=O)N1CCC[C@H](N2CCC[C@H]2C(N)=O)C1 [(S)-LGpipP] ?
inhibited SpeB activity
